- assay.system: human 5-HT4e receptor (Homo sapiens, UniProt Q13639)
- Construct: expressed in transfected cells; host or cells: CHO cells
- Sequence (Q13639 1-378 isoform Q13639-5): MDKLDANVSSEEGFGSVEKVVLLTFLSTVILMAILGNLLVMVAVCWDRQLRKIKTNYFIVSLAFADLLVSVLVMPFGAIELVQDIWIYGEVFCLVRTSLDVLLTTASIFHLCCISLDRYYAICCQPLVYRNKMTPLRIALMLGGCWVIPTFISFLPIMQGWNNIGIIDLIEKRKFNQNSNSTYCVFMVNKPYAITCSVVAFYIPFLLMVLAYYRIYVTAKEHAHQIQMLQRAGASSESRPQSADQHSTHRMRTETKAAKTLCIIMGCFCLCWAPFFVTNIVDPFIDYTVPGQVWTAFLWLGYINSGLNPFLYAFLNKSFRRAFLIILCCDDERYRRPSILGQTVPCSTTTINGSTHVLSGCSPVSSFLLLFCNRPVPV
- experiment: Binding affinity assay, radioligand [3H]GR 113808 binding in transfected CHO cell membrane homogenates
- reported.conditions: human 5-HT4e receptor in transfected CHO cells, 0.3 nM [3H]GR 113808; read-out: KI (μM or % inhibition)
- Experimental: The evaluation of the affinity of compounds for the human 5-HT4e receptor in transfected CHO cells was determined in a radioligand binding assay. […] Nonspecific binding was determined in the presence of 100 μM 5-HT. […] The filters were dried then counted for radioactivity in a scintillation counter (Topcount, Packard) using a scintillation cocktail (Microscint 0, Packard). […]
Counter-ions that a name gives are not always drawn.
measure: Ki (µM)
Just the number please, in µM, no unit attached.

Example entries and their recorded answers appear below.
compound | measurement.unit | Ki
CC(C)n1cc(C(=O)C(=O)NCCN2CCCCC2)c2cccnc21 | µM | 0.022
CC(C)n1cc(C(=O)C(=O)NCCN2CCC(C(F)(F)F)CC2)c2ccccc21 | µM | 0.023
CCCCN1CCC(NC(=O)C(=O)c2cn(C(C)C)c3ccccc23)CC1 | µM | 0.0025

Ask | May I ask what Ki has been recorded for CC(C)n1cc(C(=O)C(=O)NCCN2CCCCC2)c2ccc([N+](=O)[O-])cc21 [Example 7, hydrochloride] ?
Reply | 2.7

* * *

- assay.system: human 5-HT4e receptor (Homo sapiens)
- Construct: expressed in transfected cells; host or cells: CHO cells
- experiment: Binding affinity assay, radioligand [3H]GR 113808 binding in transfected CHO cell membrane homogenates
- reported.conditions: @ 3 uM test compound; 0.3 nM [3H]GR 113808; read-out: KI (μM or % inhibition): percent inhibition of the control radioligand specific binding
Structures can show the parent of a compound that is named as a salt.
measure: inhibition at 3 µM (%)
Just the number please, in %, no unit attached.

Example entries and their recorded answers appear below.
compound | inhibition at 3 µM, %
CCCCC1CCN(CCNC(=O)C(=O)c2cn(C(C)C)c3ccccc23)CC1 | 101
CC(C)n1cc(C(=O)C(=O)NCCN2CCC(CCO)CC2)c2ccccc21 [Example 22, hydrochloride] | 101
CCCC1CCN(CCNC(=O)C(=O)c2cn(C(C)C)c3ccccc23)CC1 [Example 18, TFA salt] | 102
CCC1CCN(CCNC(=O)C(=O)c2cn(C(C)C)c3ccccc23)CC1 [Example 23, hydrochloride] | 101

Now for the compound whose inhibition at 3 µM we want.
Ask | May I ask what inhibition at 3 µM has been recorded for CC(C)n1cc(C(=O)C(=O)NC2CCN(CCNS(C)(=O)=O)CC2)c2ccccc21 [Example 21, TFA salt] ?
Reply | 101

* * *

- assay.system: human 5-HT4e receptor (Homo sapiens)
- Construct: expressed in transfected cells; host or cells: CHO cells
- experiment: Binding affinity assay, radioligand [3H]GR 113808 binding in transfected CHO cell membrane homogenates
- reported.conditions: @ 0.3 uM test compound; 0.3 nM [3H]GR 113808; read-out: KI (μM or % inhibition): percent inhibition of the control radioligand specific binding
Counter-ions that a name gives are not always drawn.
measure: inhibition at 0.3 µM (%)
Just the number please, in %, no unit attached.

Example entries and their recorded answers appear below.
compound | assay.system | measure | measurement.unit | observed.measurement
CCC1CCN(CCNC(=O)C(=O)c2cn(C(C)C)c3ccccc23)CC1 [Example 23, hydrochloride] | human 5-HT4e receptor (Homo sapiens) | inhibition at 0.3 µM | % | 99
CC(C)n1cc(C(=O)C(=O)NCCN2CCC(CCO)CC2)c2ccccc21 [Example 22, hydrochloride] | human 5-HT4e receptor (Homo sapiens) | inhibition at 0.3 µM | % | 99
CC(C)n1cc(C(=O)C(=O)NC2CCN(CCNS(C)(=O)=O)CC2)c2ccccc21 [Example 21, TFA salt] | human 5-HT4e receptor (Homo sapiens) | inhibition at 0.3 µM | % | 95
CCCC1CCN(CCNC(=O)C(=O)c2cn(C(C)C)c3ccccc23)CC1 [Example 18, TFA salt] | human 5-HT4e receptor (Homo sapiens) | inhibition at 0.3 µM | % | 99

Now for the compound whose inhibition at 0.3 µM we want.
Ask | May I ask what inhibition at 0.3 µM has been recorded for CCCCC1CCN(CCNC(=O)C(=O)c2cn(C(C)C)c3ccccc23)CC1 [Example 24] ?
Reply | 95
